tested on: MYB mRNA; assay: Splicing RT-qPCR assay, MYB canonical (CJ) and alternative (AJ) junction mRNA; type: cell-based, human; settings: Homo sapiens; canonical junction mRNA, RT-qPCR, A673 or K562 cells, 24 hours treatment; read-out: MYB CJ (IC50, decrease in CJ mRNA)
pIC50: −log10 of the molar value. Where a name gives a salt, the structure may show the parent alone.
Entries and their pIC50 values follow.
reported-metric: pIC50

[
  {
    "compound": "C[C@H]1CN(c2cnc3nc(-c4cc5cn(C)nc5c(F)c4O)cc(Cl)c3c2)C[C@H](C)N1",
    "value-measured": "> 7.00"
  },
  {
    "compound": "Cn1cc2cc(-c3cc(Cl)c4cc(N5CCN6CCCC6C5)cnc4n3)cc(F)c2n1 (stereo not drawn)",
    "value-measured": "6.00 to 7.00"
  },
  {
    "compound": "Cc1c(O)c(-c2cc(Cl)c3cc(N(C)[C@H]4CCNC4)cnc3n2)cc2cn(C)nc12",
    "value-measured": "6.00 to 7.00"
  },
  {
    "compound": "Cc1cn2nc(-c3cc(Cl)c4cc(N5C[C@@H](C)N[C@@H](C)C5)cnc4n3)cc(C)c2n1",
    "value-measured": "6.00 to 7.00"
  },
  {
    "compound": "Cc1c(O)c(-c2ccc3c(Cl)c(N4C[C@H](C)N[C@@H](C)C4)cnc3n2)cc2cn(C)nc12",
    "value-measured": "> 7.00"
  },
  {
    "compound": "CN[C@H]1CCN(c2cnc3nc(-c4cc5cn(C)nc5c(F)c4O)cc(Cl)c3c2)C1",
    "value-measured": "> 7.00"
  },
  {
    "compound": "Cc1cn2nc(-c3cc(Cl)c4cc(N5C[C@H](C)N[C@@H](C)C5)cnc4n3)cc(C)c2n1",
    "value-measured": "> 7.00"
  },
  {
    "compound": "CN[C@H]1CN(c2cnc3nc(-c4cc5cn(C)nc5c(C)c4O)ccc3c2)C[C@@H]1F (single isomer, unassigned)",
    "value-measured": "6.00 to 7.00"
  },
  {
    "compound": "Cn1cc2cc(-c3ccc4cc(NC5CCNCC5)cnc4n3)c(O)c(F)c2n1",
    "value-measured": "6.00 to 7.00"
  },
  {
    "compound": "CN(c1cnc2nc(-c3cc(F)c4nn(C)cc4c3)ccc2c1)[C@@H]1CCNC1",
    "value-measured": "5.00 to 6.00"
  },
  {
    "compound": "CN[C@H]1CCN(c2cnc3nc(-c4cc(C)c5nc(C)cn5n4)ccc3c2)C1",
    "value-measured": "> 7.00"
  },
  {
    "compound": "Cc1c(O)c(-c2cc(Cl)c3cc(N4CCC(N(C)C)C4)cnc3n2)cc2cn(C)nc12 (stereo not drawn)",
    "value-measured": "> 7.00"
  },
  {
    "compound": "C[C@@H]1CN(c2cnc3nc(-c4cc5cn(C)nc5cc4O)cc(Cl)c3c2)C[C@H](C)N1",
    "value-measured": "> 7.00"
  },
  {
    "compound": "Cn1cc2cc(-c3cnc4nc(N5CCNCC5)cc(Cl)c4c3)cc(F)c2n1",
    "value-measured": "6.00 to 7.00"
  },
  {
    "compound": "CN[C@@H]1CCN(c2cnc3nc(-c4cc(C)c5nc(C)cn5n4)ccc3c2)C1",
    "value-measured": "> 7.00"
  },
  {
    "compound": "CN(C)C1CCN(c2ccc3nc(-c4cc5cn(C)nc5c(F)c4O)cnc3c2)CC1",
    "value-measured": "> 7.00"
  },
  {
    "compound": "COc1nc(-c2cc3cn(C)nc3c(F)c2O)nc2ncc(N3CCC(N(C)C)CC3)cc12",
    "value-measured": "> 7.00"
  },
  {
    "compound": "CCN[C@@H]1CCN(c2cnc3nc(-c4cc5cn(C)nc5cc4O)cc(Cl)c3c2)C1",
    "value-measured": "> 7.00"
  },
  {
    "compound": "COc1cc(-c2cc3cn(C)nc3c(C)c2O)nc2ncc(N3CCNCC3)cc12 [Compound 152, 2,2,2-trifluoroacetate]",
    "value-measured": "6.00 to 7.00"
  },
  {
    "compound": "COc1nc(-c2cc(Cl)c3cc(N4C[C@H](C)N[C@@H](C)C4)cnc3n2)cn2cc(C)nc12",
    "value-measured": "5.00 to 6.00"
  },
  {
    "compound": "Cc1c(O)c(-c2ncc3cc(N4CC[C@@H](N)C4)cnc3n2)cc2cn(C)nc12 [Compound 159, 2,2,2-trifluoroacetate]",
    "value-measured": "> 7.00"
  },
  {
    "compound": "Cc1cn2cc(-c3cc(Cl)c4cc(N5C[C@@H](C)NC6(CC6)C5)cnc4n3)cc(F)c2n1",
    "value-measured": "6.00 to 7.00"
  },
  {
    "compound": "Cn1cc2cc(-c3ccc4c(Cl)c(N5CCNC6(CC6)C5)cnc4n3)c(O)cc2n1",
    "value-measured": "6.00 to 7.00"
  },
  {
    "compound": "C[C@@H]1CN(c2cnc3nc(-c4cc(C#N)c5nn(C)cc5c4)cc(Cl)c3c2)C[C@H](C)N1 [Compound 325, 2,2,2-trifluoroacetate]",
    "value-measured": "6.00 to 7.00"
  },
  {
    "compound": "Cc1c(O)c(-c2cc(Cl)c3cc(N4C[C@@H]5CCCN(C)[C@@H]5C4)cnc3n2)cc2cn(C)nc12",
    "value-measured": "6.00 to 7.00"
  },
  {
    "compound": "Cn1cc2cc(-c3cnc4cc(N5CC[C@H](NC6CC6)C5)ccc4n3)c(O)c(F)c2n1",
    "value-measured": "> 7.00"
  },
  {
    "compound": "Cc1cn2cc(-c3ccc4cc(N(C)[C@@H]5CCNC5)cnc4n3)cc(F)c2n1 [Compound 361, hydrochloride]",
    "value-measured": "< 5.00"
  },
  {
    "compound": "Cc1c(O)c(-c2cc(Cl)c3cc(NC4CCNC4)cnc3n2)cc2cn(C)nc12 (stereo not drawn)",
    "value-measured": "6.00 to 7.00"
  },
  {
    "compound": "Cn1cc2cc(-c3cc(Cl)c4cc(N5CCNC(C6CC6)C5)cnc4n3)cc(F)c2n1 (stereo not drawn)",
    "value-measured": "6.00 to 7.00"
  },
  {
    "compound": "C[C@H]1CN(c2cnc3nc(-c4cc(F)c5nn(C)cc5c4)cc(Cl)c3c2)CCN1",
    "value-measured": "> 7.00"
  }
]
